- System: HepG2 cells
- Assay notes: Test Example 2: inhibition of apolipoprotein B secretion from HepG2 cells, ELISA (also used for metabolites in Test Example 8)
- Assay type: cell-based
- Applied conditions: Homo sapiens, 24 hours, apo B in supernatant by ELISA, read-out: Test Example 2 Inhibition of apo B secretion IC50
pIC50: −log10 of the molar value.
Value kind: pIC50

Compound	Target entity	Observed result
CCCCOc1ccccc1C(=O)Nc1ccc(CC(=O)OCC(C(=O)NCC)(C(=O)NCC)c2ccccc2)cc1 [Example 1-52]	HepG2 cells	6.16
CCOC(=O)C(COC(=O)Cc1ccc(NC(=O)c2ccccc2-c2cccc(C(F)(F)F)c2)cc1)(C(=O)OCC)c1ccccc1 [Example 1-53]	HepG2 cells	6.07
O=C(Cc1ccc(NC(=O)c2ccccc2-c2ccccc2)cc1)OCC(C(=O)NCC(F)(F)F)(C(=O)NCC(F)(F)F)c1ccccc1 [Example 1-32]	HepG2 cells	6.14
CCNC(=O)C(COC(=O)Cc1ccc(NC(=O)c2ccccc2-c2ccc(C(F)(F)F)cc2)c(C(=O)N(C)CC)c1)(C(=O)NCC)c1ccccc1 [Example 2-14]	HepG2 cells	8.92
CCNC(=O)C(CCOC(=O)Cc1ccc(NC(=O)c2ccccc2-c2ccc(C(F)(F)F)cc2)c(OC(C)C)c1)(C(=O)NCC)c1ccccc1 [Example 3-11]	HepG2 cells	9.44
CCOC(=O)C(CC)(COC(=O)Cc1ccc(NC(=O)c2ccccc2-c2ccc(C(F)(F)F)cc2)c(C(=O)N(C)C)c1)C(=O)OCC [Example 2-115]	HepG2 cells	7.36
CCOC(=O)C(COC(=O)Cc1ccc(NC(=O)c2ccccc2C(F)(F)F)c(C(=O)N(C)C)c1)(C(=O)OCC)c1ccccc1 [Example 2-31]	HepG2 cells	7.37
CCOC(=O)C(COC(=O)Cc1ccc(NC(=O)c2ccccc2-c2ccc(Cl)cc2)c(C(=O)N(C)C)c1)(C(=O)OCC)c1ccccc1 [Example 2-42]	HepG2 cells	8.74
C=C(C)c1cc(C(F)(F)F)ccc1C(=O)Nc1ccc(CC(=O)OCC(C(=O)OCC)(C(=O)OCC)c2ccccc2)cc1C(=O)N(C)C [Example 2-93]	HepG2 cells	7.34
CCOC(=O)C(COC(=O)Cc1ccc(NC(=O)c2ccccc2-c2ccc(C(F)(F)F)cc2)cc1)(Cc1ccccc1)C(=O)OCC [Example 1-26]	HepG2 cells	6.21
CCNC(=O)C(COC(=O)Cc1ccc(NC(=O)c2ccccc2-c2ccc(C(F)(F)F)cc2)c(C(=O)OCC)c1)(C(=O)NCC)c1ccccc1 [Example 9-10]	HepG2 cells	8.64
CCOC(=O)C(COC(=O)Cc1ccc(NC(=O)c2ccccc2-c2ccc(C(F)(F)F)cc2)c(C)c1)(C(=O)OCC)c1ccccc1 [Example 1-3]	HepG2 cells	8.24
CCNC(=O)C(COC(=O)Cc1ccc(NC(=O)c2ccccc2-c2ccc(C(F)(F)F)cc2)c(C(=O)OC)c1)(C(=O)NCC)c1ccccc1 [Example 9-13]	HepG2 cells	9.28
CCOC(=O)C(COC(=O)Cc1ccc(NC(=O)c2ccccc2-c2ccc(C(F)(F)F)cc2)cc1)(C(=O)OCC)c1ccccc1 [Example 1-9]	HepG2 cells	8.49
CCCCNC(=O)C(COC(=O)Cc1ccc(NC(=O)c2ccccc2-c2ccc(C(F)(F)F)cc2)cc1)(C(=O)NCCCC)c1ccccc1 [Example 1-42]	HepG2 cells	7.46
CCNC(=O)C(CCCOC(=O)Cc1cccc(NC(=O)c2ccccc2-c2ccc(C(F)(F)F)cc2)c1C)(C(=O)NCC)c1ccccc1 [Example 5-10]	HepG2 cells	6.52
CCOC(=O)C(COC(=O)Cc1ccc(NC(=O)c2ccccc2-c2ccc(OC)cc2)cc1)(C(=O)OCC)c1ccccc1 [Example 1-47]	HepG2 cells	6.12
CCNC(=O)C(COC(=O)Cc1ccc(NC(=O)c2ccccc2-c2ccc(C(F)(F)F)cc2)c(N2CCCC2)c1)(C(=O)NCC)c1ccccc1 [Example 4-3]	HepG2 cells	8.10
CCOC(=O)C(CCOC(=O)Cc1cccc(NC(=O)c2ccccc2-c2ccc(C(F)(F)F)cc2)c1OCC)(C(=O)OCC)c1ccccc1 [Example 5-15]	HepG2 cells	8.19
CCOC(=O)C(COC(=O)Cc1ccc(OC(=O)c2ccccc2-c2ccc(C(F)(F)F)cc2)cc1)(C(=O)OCC)c1ccccc1 [Example 1-2]	HepG2 cells	6.07
CCNC(=O)C(CCOC(=O)Cc1cccc(NC(=O)c2ccccc2-c2ccc(C(F)(F)F)cc2)c1OCC)(C(=O)NCC)c1ccccc1 [Example 5-14]	HepG2 cells	9.47
CCNC(=O)C(CCCOC(=O)Cc1ccc(NC(=O)c2ccccc2-c2ccc(C(F)(F)F)cc2)c(C(=O)N(C)C)c1)(C(=O)NCC)c1ccccc1 [Example 2-7]	HepG2 cells	9.25
CN(C)C(=O)c1cc(CC(=O)OC[C@H](c2ccccc2)N2C(=O)CCC2=O)ccc1NC(=O)c1ccccc1-c1ccc(C(F)(F)F)cc1 [Example 2-26]	HepG2 cells	8.09
CCOC(=O)C(COC(=O)Cc1ccc2c(c1)C(=O)N2C(=O)c1ccccc1-c1ccc(C(F)(F)F)cc1)(C(=O)OCC)c1ccccc1 [Example 9-17]	HepG2 cells	7.64
CCOC(=O)C(COC(=O)Cc1ccc(NC(=O)c2ccccc2Nc2cccc(C(F)(F)F)c2)c(C(=O)N(C)C)c1)(C(=O)OCC)c1ccccc1 [Example 2-95]	HepG2 cells	7.74

---

- Target entity: Microsomal triglyceride transfer protein (MTP) from bovine liver (Bos taurus)
- Construct: from tissue; host or cells: bovine liver
- Sequence (P55156 12-887): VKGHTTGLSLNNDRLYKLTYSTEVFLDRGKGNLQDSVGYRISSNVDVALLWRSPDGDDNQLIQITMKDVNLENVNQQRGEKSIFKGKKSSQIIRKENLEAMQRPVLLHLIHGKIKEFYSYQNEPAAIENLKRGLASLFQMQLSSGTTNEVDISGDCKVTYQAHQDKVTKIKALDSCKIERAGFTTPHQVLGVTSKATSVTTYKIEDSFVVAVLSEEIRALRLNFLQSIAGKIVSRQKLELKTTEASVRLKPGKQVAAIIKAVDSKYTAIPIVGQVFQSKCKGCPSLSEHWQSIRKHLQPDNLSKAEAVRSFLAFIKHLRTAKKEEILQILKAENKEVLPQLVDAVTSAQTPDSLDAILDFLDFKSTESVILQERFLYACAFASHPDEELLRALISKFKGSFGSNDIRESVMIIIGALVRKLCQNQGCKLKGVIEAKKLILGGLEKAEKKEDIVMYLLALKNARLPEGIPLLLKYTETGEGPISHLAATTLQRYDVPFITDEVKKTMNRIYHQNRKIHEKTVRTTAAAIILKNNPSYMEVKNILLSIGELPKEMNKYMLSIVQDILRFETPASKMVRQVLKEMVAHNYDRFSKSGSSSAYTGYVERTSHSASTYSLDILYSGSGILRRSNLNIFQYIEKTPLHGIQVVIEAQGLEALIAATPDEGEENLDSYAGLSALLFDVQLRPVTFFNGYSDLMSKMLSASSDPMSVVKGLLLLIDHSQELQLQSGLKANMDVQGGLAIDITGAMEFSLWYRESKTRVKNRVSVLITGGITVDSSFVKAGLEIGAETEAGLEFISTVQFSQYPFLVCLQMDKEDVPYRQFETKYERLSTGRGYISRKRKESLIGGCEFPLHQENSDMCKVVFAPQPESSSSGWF
- Sequence (P05307 21-510 partner): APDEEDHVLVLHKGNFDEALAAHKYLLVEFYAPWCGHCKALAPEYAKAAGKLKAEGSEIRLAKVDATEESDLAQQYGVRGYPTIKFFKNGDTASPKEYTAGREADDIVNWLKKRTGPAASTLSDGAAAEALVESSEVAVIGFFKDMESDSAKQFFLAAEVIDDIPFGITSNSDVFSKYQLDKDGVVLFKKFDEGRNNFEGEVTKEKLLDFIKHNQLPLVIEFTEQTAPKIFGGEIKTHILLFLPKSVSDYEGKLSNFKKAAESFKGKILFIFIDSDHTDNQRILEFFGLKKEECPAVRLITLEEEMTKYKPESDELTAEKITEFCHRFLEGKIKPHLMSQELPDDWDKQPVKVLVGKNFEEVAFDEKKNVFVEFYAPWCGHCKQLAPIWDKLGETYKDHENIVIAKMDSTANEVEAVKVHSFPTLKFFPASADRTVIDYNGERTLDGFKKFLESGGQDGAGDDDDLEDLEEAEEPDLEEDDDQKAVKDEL
- Assay notes: Test Example 1: inhibition of interliposomal triglyceride (TG) transfer activity by MTP (also used for metabolites in Test Example 8)
- Assay type: biochemical
- Applied conditions: MTP-mediated 14C-triolein transfer between liposomes, 37° C., one hour; read-out: Test Example 1 MTP inhibition IC50
pIC50: −log10 of the molar value.

Compound	pIC50
CCOC(=O)C(COC(=O)Cc1ccc(NC(=O)c2ccccc2-c2ccc(C(F)(F)F)cc2)c(C)c1)(C(=O)OCC)c1ccccc1 [Example 1-3]	8.33
CCOC(=O)C(COC(=O)Cc1ccc(NC(=O)c2ccccc2-c2ccc(C(F)(F)F)cc2)c(OC)c1)(C(=O)OCC)c1ccccc1 [Example 3-4]	8.68
CCOC(=O)C(CCOC(=O)C1CCC(NC(=O)c2ccccc2-c2ccc(C(F)(F)F)cc2)CC1)(C(=O)OCC)c1ccccc1 (stereo not shown) [Example 7-5]	7.79
CCOC(=O)C(COC(=O)Cc1ccc(OC(=O)c2ccccc2-c2ccc(C(F)(F)F)cc2)cc1)(C(=O)OCC)c1ccccc1 [Example 1-2]	7.38
O=C(N[C@H]1CC[C@@H](C(=O)OCCC2(C(=O)NCC(F)(F)F)c3ccccc3-c3ccccc32)CC1)c1ccccc1-c1ccc(C(F)(F)F)cc1 [Example 7-2]	8.61
COC(=O)C(COC(=O)Cc1ccc(NC(=O)c2ccccc2-c2ccc(C(F)(F)F)cc2)c(C(=O)N(C)C)c1)(C(=O)OC)c1ccccc1 [Example 2-39]	9.13
CCNC(=O)C(COC(=O)Cc1ccc(NC(=O)c2ccccc2-c2ccc(Cl)c(Cl)c2)cc1)(C(=O)NCC)c1ccccc1 [Example 1-71]	8.74
O=C(Cc1ccc(NC(=O)c2ccccc2-c2ccc(C(F)(F)F)cc2)cc1)OCC(C(=O)NCC(F)(F)F)(C(=O)NCC(F)(F)F)c1ccccc1 [Example 1-12]	8.12
CC(C)CNC(=O)C(COC(=O)Cc1ccc(NC(=O)c2ccccc2-c2ccc(C(F)(F)F)cc2)cc1)(C(=O)NCC(C)C)c1ccccc1 [Example 1-66]	7.80
CCOC(=O)C(COC(=O)Cc1ccc(NC(=O)c2ccccc2-c2ccc(C(F)(F)F)cc2)c(OCc2ccccc2)c1)(C(=O)OCC)c1ccccc1 [Example 3-14]	7.89
CCNC(=O)C(CCOC(=O)Cc1ccc(NC(=O)c2ccccc2-c2ccc(C(F)(F)F)cc2)c(OCC)c1)(C(=O)NCC)c1ccccc1 [Example 3-8]	8.43
CCNC(=O)C(COC(=O)Cc1ccc(NC(=O)c2ccccc2C2CCCCC2)cc1)(C(=O)NCC)c1ccccc1 [Example 1-69]	8.04
CCOC(=O)C(COC(=O)Cc1ccc(NC(=O)c2ccccc2-c2ccc(OC)cc2)cc1)(C(=O)OCC)c1ccccc1 [Example 1-47]	8.35
CCOC(=O)C(COC(=O)Cn1c(C)nc2c(NC(=O)c3ccccc3-c3ccc(C(F)(F)F)cc3)cccc21)(C(=O)OCC)c1ccccc1 [Example 9-2]	8.38
O=C(Nc1ccccc1-c1ccccc1)c1ccc(C(=O)OCCC2(C(=O)NCC(F)(F)F)c3ccccc3-c3ccccc32)cc1 [Example 6-3]	8.28
CCOC(=O)C(CCOC(=O)Cc1cccc(NC(=O)c2ccccc2-c2ccc(C(F)(F)F)cc2)c1)(C(=O)OCC)c1ccccc1 [Example 5-3]	8.21
CCNC(=O)C(CCCOC(=O)Cc1ccc(NC(=O)c2ccccc2-c2ccc(C(F)(F)F)cc2)c(C(=O)N(C)C)c1)(C(=O)NCC)c1ccccc1 [Example 2-7]	8.96
CCNC(=O)C(CCOC(=O)Cc1ccc(NC(=O)c2ccccc2-c2ccc(C(F)(F)F)cc2)cc1)(C(=O)NCC)c1ccccc1 [Example 1-48]	8.49
CCNC(=O)C(CCOC(=O)c1ccc(NC(=O)c2ccccc2-c2ccc(C(F)(F)F)cc2)cc1)(C(=O)NCC)c1ccccc1 [Example 6-19]	8.49
CCNC(=O)C(COC(=O)Cc1ccc(NC(=O)c2ccccc2-c2ccc(C(F)(F)F)cc2)c(OC)c1)(C(=O)NCC)c1ccccc1 [Example 3-3]	9.40
CCOC(=O)C(COC(=O)Cc1ccc(NC(=O)c2ccccc2-c2cccc(C(F)(F)F)c2)cc1)(C(=O)OCC)c1ccccc1 [Example 1-53]	9.37
CCCCOc1ccccc1C(=O)Nc1ccc(CC(=O)OCC(C(=O)NCC)(C(=O)NCC)c2ccccc2)cc1 [Example 1-52]	8.00
O=C(Cc1ccc(NC(=O)c2ccccc2-c2ccc(C(F)(F)F)cc2)cc1)OCC(C(=O)OC1CCCCC1)(C(=O)OC1CCCCC1)c1ccccc1 [Example 1-22]	7.18
CCOC(=O)C(COC(=O)Cc1ccc(NC(=O)c2ccccc2-c2ccc(C(F)(F)F)cc2)c(C(=O)N2CCCC2)c1)(C(=O)OCC)c1ccccc1 [Example 2-22]	8.85
O=C(Cc1ccc(NC(=O)c2ccccc2-c2ccccc2)cc1)OCC(C(=O)NCC(F)(F)F)(C(=O)NCC(F)(F)F)c1ccccc1 [Example 1-32]	8.07
